Tested on: RAW264.7
Experiment: Antiinflammatory activity in mouse RAW264.7 cells assessed as inhibition of LPS induced iNOS-dependent nitric oxide production after 24 hrs by Griess assay
Assay type: functional, cell-based
Settings: RAW264.7, 24 h

smilesInput: COc1ccc(CCCc2ccc(OC)cc2OC)c(O)c1
systemUnderTest: RAW264.7
censorSymbol: =
IC50 [µg/mL]: 6.71
--
smilesInput: COc1ccc(C(=O)CCc2ccc3c(c2)OCO3)c(O)c1
systemUnderTest: RAW264.7
censorSymbol: >
IC50 [µg/mL]: 10
--
smilesInput: COc1ccc(CCC(=O)c2cccc(O)c2)c(OC)c1
systemUnderTest: RAW264.7
censorSymbol: =
IC50 [µg/mL]: 9.42
--
smilesInput: COc1ccc(CCCc2cccc(O)c2)c(OC)c1
systemUnderTest: RAW264.7
censorSymbol: =
IC50 [µg/mL]: 6.92
--
smilesInput: COc1ccc(CCCc2ccc(OC)c(OC)c2OC)c(O)c1
systemUnderTest: RAW264.7
censorSymbol: =
IC50 [µg/mL]: 4.03
--
smilesInput: COc1ccc(/C=C/C(=O)c2ccc(OC)cc2O)cc1
systemUnderTest: RAW264.7
censorSymbol: =
IC50 [µg/mL]: 4.73
--
smilesInput: COc1ccc(CCCc2cc(OC)ccc2OC)c(O)c1
systemUnderTest: RAW264.7
censorSymbol: =
IC50 [µg/mL]: 9.9
--
smilesInput: COc1ccc(C(=O)/C=C/c2ccc(OC)cc2OC)c(O)c1
systemUnderTest: RAW264.7
censorSymbol: >
IC50 [µg/mL]: 10
--
smilesInput: COc1ccc(CCCc2ccc3c(c2)OCO3)c(O)c1
systemUnderTest: RAW264.7
censorSymbol: =
IC50 [µg/mL]: 4.12
--
smilesInput: COc1ccc(CCCc2ccc(OC)c(OC)c2)c(O)c1
systemUnderTest: RAW264.7
censorSymbol: =
IC50 [µg/mL]: 1.97
--
smilesInput: COc1cc(C(=O)/C=C/c2cccc(OC)c2OC)ccc1O
systemUnderTest: RAW264.7
censorSymbol: >
IC50 [µg/mL]: 10
--
smilesInput: COc1ccc(/C=C/C(=O)c2cccc(O)c2)cc1OC
systemUnderTest: RAW264.7
censorSymbol: =
IC50 [µg/mL]: 8.38

----------
Assay: Cytotoxicity against LPS-stimulated mouse RAW264.7 cells assessed as cell viability at 2.5 ug/ml after 24 hrs by MTT assay relative to control
Assay type: cell-based
Details: LPS-stimulated RAW264.7 cells, read-out: Activity

smilesInput: COc1ccc(/C=C/C(=O)c2ccc(OC)c(OC)c2)cc1O
unitString: %
viability at 24 h, 2.5 ug/ml: 82.1
//
smilesInput: COc1ccc(CCC(=O)c2ccc(O)c(OC)c2)cc1
unitString: %
viability at 24 h, 2.5 ug/ml: 92
//
smilesInput: COc1ccc(CCCc2ccc3c(c2)OCO3)c(O)c1
unitString: %
viability at 24 h, 2.5 ug/ml: 95.3
//
smilesInput: COc1cc(CCC(=O)c2cccc(O)c2)ccc1O
unitString: %
viability at 24 h, 2.5 ug/ml: 98.9
//
smilesInput: COc1ccc(C(=O)CCc2cc(OC)ccc2OC)c(O)c1
unitString: %
viability at 24 h, 2.5 ug/ml: 96.2
//
smilesInput: COc1ccc(CCCc2ccc(OC)c(OC)c2)cc1OC
unitString: %
viability at 24 h, 2.5 ug/ml: 97.4
//
smilesInput: COc1ccc(/C=C/C(=O)c2ccc(O)c(OC)c2)cc1
unitString: %
viability at 24 h, 2.5 ug/ml: 96
//
smilesInput: COc1ccc(CCCc2ccc(OC)c(OC)c2OC)c(O)c1
unitString: %
viability at 24 h, 2.5 ug/ml: 95.5
//
smilesInput: COc1ccc(CCC(=O)c2cccc(O)c2)c(OC)c1
unitString: %
viability at 24 h, 2.5 ug/ml: 88.5
//
smilesInput: COc1cc(C(=O)CCc2ccc3c(c2)OCO3)ccc1O
unitString: %
viability at 24 h, 2.5 ug/ml: 94.5
//
smilesInput: COc1ccc(C(=O)/C=C/c2ccc(OC)c(OC)c2)c(O)c1
unitString: %
viability at 24 h, 2.5 ug/ml: 92.6
//
smilesInput: COc1ccc(/C=C/C(=O)c2ccc(OC)c(OC)c2)cc1OC
unitString: %
viability at 24 h, 2.5 ug/ml: 91.9

----------
Assay: Cytotoxicity against LPS-stimulated mouse RAW264.7 cells assessed as cell viability at 10 ug/ml after 24 hrs by MTT assay relative to control
Type: cell-based
Settings: LPS-stimulated RAW264.7 cells, read-out: Activity
The label is 1 (yes) for viability at 24 h, 10 ug/ml below 70% and 0 (no) for viability at 24 h, 10 ug/ml equal to or exceeding 70%.

smilesInput: COc1ccc(CCC(=O)c2cccc(O)c2)cc1
assignedCategory: 0 (no)

smilesInput: COc1ccc(CCC(=O)c2cccc(O)c2)cc1OC
assignedCategory: 0 (no)

smilesInput: COc1cccc(/C=C/C(=O)c2cccc(O)c2)c1OC
assignedCategory: 1 (yes)

smilesInput: COc1ccc(/C=C/C(=O)c2cccc(O)c2)cc1OC
assignedCategory: 1 (yes)

smilesInput: COc1cc(CCC(=O)c2cccc(O)c2)ccc1O
assignedCategory: 0 (no)

smilesInput: COc1ccc(CCCc2cccc(O)c2)cc1
assignedCategory: 0 (no)

smilesInput: COc1ccc(CCCc2ccc3c(c2)OCO3)c(OC)c1
assignedCategory: 0 (no)

smilesInput: COc1ccc(/C=C/C(=O)c2cccc(O)c2)c(OC)c1
assignedCategory: 1 (yes)

smilesInput: COc1ccc(C(=O)CCc2cccc(OC)c2OC)c(O)c1
assignedCategory: 0 (no)

smilesInput: COc1ccc(OC)c(/C=C/C(=O)c2cccc(O)c2)c1
assignedCategory: 1 (yes)

smilesInput: Oc1ccc(CCCc2ccc3c(c2)OCO3)cc1
assignedCategory: 0 (no)

smilesInput: COc1ccc(C(=O)CCc2ccc(OC)c(OC)c2)c(O)c1
assignedCategory: 1 (yes)

smilesInput: COc1cc(/C=C/C(=O)c2cccc(O)c2)ccc1O
assignedCategory: 1 (yes)

smilesInput: COc1cc(C(=O)/C=C/c2cccc(OC)c2OC)ccc1O
assignedCategory: 1 (yes)

smilesInput: COc1ccc(CCCc2ccc(OC)cc2OC)c(O)c1
assignedCategory: 1 (yes)

smilesInput: COc1ccc(/C=C/C(=O)c2cccc(O)c2)cc1
assignedCategory: 1 (yes)

smilesInput: COc1ccc(C(=O)/C=C/c2cc(OC)ccc2OC)c(O)c1
assignedCategory: 1 (yes)

smilesInput: COc1ccc(CCCc2cc(OC)ccc2OC)c(O)c1
assignedCategory: 1 (yes)

smilesInput: COc1ccc(C(=O)CCc2ccc(OC)cc2OC)c(O)c1
assignedCategory: 0 (no)

smilesInput: COc1ccc(CCC(=O)c2ccc(O)c(OC)c2)cc1
assignedCategory: 0 (no)

smilesInput: COc1ccc(CCCc2ccc(OC)c(OC)c2OC)c(O)c1
assignedCategory: 1 (yes)

smilesInput: COc1ccc(CCCc2ccc3c(c2)OCO3)c(O)c1
assignedCategory: 1 (yes)

smilesInput: COc1ccc(CCC(=O)c2ccc(OC)c(OC)c2)cc1O
assignedCategory: 0 (no)

smilesInput: COc1ccc(/C=C/C(=O)c2ccc(OC)c(OC)c2)cc1
assignedCategory: 0 (no)

----------
Assay: Cytotoxicity against LPS-stimulated mouse RAW264.7 cells assessed as cell viability at 2.5 ug/ml after 24 hrs by MTT assay relative to control
Format: cell-based
Settings: LPS-stimulated RAW264.7 cells, read-out: Activity
experimentalEndpoint: viability at 24 h, 2.5 ug/ml (%)

smilesInput: COc1cc(CCCc2ccc3c(c2)OCO3)ccc1O
experimentalEndpoint: viability at 24 h, 2.5 ug/ml
result: 96.2
//
smilesInput: COc1ccc(C(=O)/C=C/c2ccc3c(c2)OCO3)c(OC)c1
experimentalEndpoint: viability at 24 h, 2.5 ug/ml
result: 70.4
//
smilesInput: COc1ccc(C(=O)CCc2ccc(OC)cc2OC)c(O)c1
experimentalEndpoint: viability at 24 h, 2.5 ug/ml
result: 96.2
//
smilesInput: COc1ccc(CCCc2cccc(OC)c2OC)c(O)c1
experimentalEndpoint: viability at 24 h, 2.5 ug/ml
result: 99
//
smilesInput: Oc1ccc(CCCc2ccc3c(c2)OCO3)cc1
experimentalEndpoint: viability at 24 h, 2.5 ug/ml
result: 95.7
//
smilesInput: COc1ccc(CCCc2cccc(O)c2)c(OC)c1
experimentalEndpoint: viability at 24 h, 2.5 ug/ml
result: 97
//
smilesInput: COc1ccc(C(=O)CCc2cccc(OC)c2OC)c(O)c1
experimentalEndpoint: viability at 24 h, 2.5 ug/ml
result: 95.2
//
smilesInput: COc1cc(C(=O)/C=C/c2ccc3c(c2)OCO3)ccc1O
experimentalEndpoint: viability at 24 h, 2.5 ug/ml
result: 85.3
//
smilesInput: COc1ccc(CCC(=O)c2ccc(OC)cc2O)cc1
experimentalEndpoint: viability at 24 h, 2.5 ug/ml
result: 94.5
//
smilesInput: COc1ccc(CCCc2ccc(OC)cc2O)cc1
experimentalEndpoint: viability at 24 h, 2.5 ug/ml
result: 96.8
//
smilesInput: COc1ccc(OC)c(/C=C/C(=O)c2cccc(O)c2)c1
experimentalEndpoint: viability at 24 h, 2.5 ug/ml
result: 72.4
//
smilesInput: O=C(CCc1ccc2c(c1)OCO2)c1ccc(O)cc1
experimentalEndpoint: viability at 24 h, 2.5 ug/ml
result: 89
